# Test system: Escherichia coli
# ASSAY_NOTES: Activity of Escherichia coli BL21(DE3) beta-lactamase TEM151
REPORTED_PROPERTY: Km (µM)

[[record]]
molecule = "C[C@H]1[C@H](NC(=O)/C(=N\\OC(C)(C)C(=O)O)c2csc(N)n2)C(=O)N1S(=O)(=O)O (stereo in doubt) [AZTREONAM]"
reported_property = "Km"
experimental_value = 83

[[record]]
molecule = "CC1(C)S[C@@H]2[C@H](NC(=O)[C@H](N)c3ccc(O)cc3)C(=O)N2[C@H]1C(=O)O [AMOXICILLIN]"
reported_property = "Km"
experimental_value = 40

[[record]]
molecule = "CC1(C)S[C@@H]2[C@H](NC(=O)[C@H](C(=O)O)c3ccsc3)C(=O)N2[C@H]1C(=O)O [TICARCILLIN]"
reported_property = "Km"
experimental_value = 21

[[record]]
molecule = "CO/N=C(\\C(=O)N[C@@H]1C(=O)N2C(C(=O)O)=C(COC(C)=O)CS[C@H]12)c1csc(N)n1 [CEFOTAXIME]"
reported_property = "Km"
experimental_value = 304

[[record]]
molecule = "CO/N=C(\\C(=O)N[C@@H]1C(=O)N2C(C(=O)[O-])=C(C[N+]3(C)CCCC3)CS[C@H]12)c1csc(N)n1"
reported_property = "Km"
experimental_value = 126


* * *

# System: Escherichia coli
# ASSAY_NOTES: Activity of Escherichia coli BL21(DE3) beta-lactamase TEM29
Quick reference: Km of the listed items.
REPORTED_PROPERTY: Km (µM)

[[record]]
compound = "CO/N=C(\\C(=O)N[C@@H]1C(=O)N2C(C(=O)[O-])=C(C[N+]3(C)CCCC3)CS[C@H]12)c1csc(N)n1"
experimental_value = 145

[[record]]
compound = "C[C@H]1[C@H](NC(=O)/C(=N\\OC(C)(C)C(=O)O)c2csc(N)n2)C(=O)N1S(=O)(=O)O (stereo in doubt) [AZTREONAM]"
experimental_value = 34

[[record]]
compound = "CO/N=C(\\C(=O)N[C@@H]1C(=O)N2C(C(=O)O)=C(COC(C)=O)CS[C@H]12)c1csc(N)n1 [CEFOTAXIME]"
experimental_value = 345

[[record]]
compound = "CCN1CCN(C(=O)N[C@@H](C(=O)N[C@@H]2C(=O)N3[C@@H]2SC(C)(C)[C@@H]3C(=O)O)c2ccccc2)C(=O)C1=O [PIPERACILLIN]"
experimental_value = 39


* * *

# Test system: Escherichia coli
# ASSAY_NOTES: Activity of Escherichia coli BL21(DE3) beta-lactamase TEM151
Quick reference: kcat/Km of the listed items.
REPORTED_PROPERTY: kcat/Km (M⁻¹ s⁻¹)

[[record]]
compound = "CC(=O)OCC1=C(C(=O)O)N2C(=O)[C@@H](NC(=O)Cc3cccs3)[C@H]2SC1"
reported_property = "kcat/Km"
experimental_value = 40000

[[record]]
compound = "CC(C)(O/N=C(\\C(=O)N[C@@H]1C(=O)N2C(C(=O)[O-])=C(C[n+]3ccccc3)CS[C@H]12)c1csc(N)n1)C(=O)O"
reported_property = "kcat/Km"
experimental_value = 20000

[[record]]
compound = "CO/N=C(\\C(=O)N[C@@H]1C(=O)N2C(C(=O)[O-])=C(C[N+]3(C)CCCC3)CS[C@H]12)c1csc(N)n1"
reported_property = "kcat/Km"
experimental_value = 20000

[[record]]
compound = "CC1(C)S[C@@H]2[C@H](NC(=O)[C@H](C(=O)O)c3ccsc3)C(=O)N2[C@H]1C(=O)O"
reported_property = "kcat/Km"
experimental_value = "2.9e+06"

[[record]]
compound = "CO/N=C(\\C(=O)N[C@@H]1C(=O)N2C(C(=O)O)=C(COC(C)=O)CS[C@H]12)c1csc(N)n1"
reported_property = "kcat/Km"
experimental_value = 20000

[[record]]
compound = "C[C@H]1[C@H](NC(=O)/C(=N\\OC(C)(C)C(=O)O)c2csc(N)n2)C(=O)N1S(=O)(=O)O (stereo in doubt)"
reported_property = "kcat/Km"
experimental_value = 100000

[[record]]
compound = "CCN1CCN(C(=O)N[C@@H](C(=O)N[C@@H]2C(=O)N3[C@@H]2SC(C)(C)[C@@H]3C(=O)O)c2ccccc2)C(=O)C1=O"
reported_property = "kcat/Km"
experimental_value = "3.9e+06"

[[record]]
compound = "CC1(C)S[C@@H]2[C@H](NC(=O)[C@H](N)c3ccc(O)cc3)C(=O)N2[C@H]1C(=O)O"
reported_property = "kcat/Km"
experimental_value = "3.7e+06"

